# TEST METHOD NOTES: Liver cell viability assay (Alamar Blue)
# CONDITIONS: human
For each record, write down the corresponding CC50 at 48 h.

| COMPOUND | RESULT |
| --- | --- |
| O=C(Nc1ccc(Oc2ccc(Cl)cc2)c(Cl)c1)c1cc(I)cc(I)c1O [Rafoxanide, rafoxanide, reference compound] | 24 µM |

For each of the compounds below, state CC50 at 48 h.
1. COc1c(Br)cc(Br)cc1C(=O)Nc1ccccc1 [Compound 41, 3,5-Dibromo-2-methoxy-N-phenylbenzamide]
2. COc1ccc(Br)cc1C(=O)Nc1ccccc1 [Compound 43, 5-Bromo-2-methoxy-N-phenylbenzamide]
3. O=C(Nc1cccc(Cl)c1)c1ccccc1 [Compound 25, N-(3-Chlorophenyl)benzamide]

> 100 µM
> 100 µM
> 100 µM

For each of the compounds below, state CC50 at 48 h.
1. COc1c(Br)cccc1C(=O)Nc1ccccc1 [Compound 42, 3-Bromo-2-methoxy-N-phenylbenzamide]
2. O=C(Nc1ccc(Sc2nc3ccccc3s2)c(Cl)c1)c1cc(Br)cc(Br)c1

> 100 µM
> 100 µM

For each of the compounds below, state CC50 at 48 h.
1. COc1c(Br)cccc1C(=O)Nc1ccc(Sc2nc3ccccc3s2)cc1
2. O=C(Nc1ccc(Sc2nc3ccccc3s2)cc1)c1ccccc1
3. COc1ccccc1C(=O)Nc1cccc(Cl)c1 [Compound 40, N-(3-Chlorophenyl)-2-methoxybenzamide]
4. COc1c(Br)cccc1C(=O)Nc1cccc(Cl)c1
5. O=C(Nc1ccccc1)c1cccc(Br)c1 [Compound 27, 3-Bromo-N-phenylbenzamide]
6. COc1c(Br)cccc1C(=O)Nc1ccc(Sc2nc3ccccc3s2)c(Cl)c1

1. > 100 µM
2. > 100 µM
3. > 100 µM
4. > 100 µM
5. > 100 µM
6. > 100 µM

For each of the compounds below, state CC50 at 48 h.
1. COc1ccccc1C(=O)Nc1ccc(Sc2nc3ccccc3s2)cc1
2. COc1ccccc1C(=O)Nc1ccccc1 [Compound 44, 2-Methoxy-N-phenylbenzamide]
3. O=C(Nc1cccc(Cl)c1)c1cccc(Br)c1 [Compound 24, 3-Bromo-N-(3-chlorophenyl)benzamide]
4. O=C(Nc1ccc(Sc2nc3ccccc3s2)c(Cl)c1)c1cccc(Br)c1

["> 100 µM", "> 100 µM", "50.1 µM", "87.1 µM"]

====

# EXPERIMENTAL TARGET: E. coli GroEL/ES (Escherichia coli, UniProt P0A6F5)
# Construct: made in house; host or cells: GroEL in E. coli DH5α; GroES in E. coli BL21 (DE3)
# Sequence (P0A6F5 2-548): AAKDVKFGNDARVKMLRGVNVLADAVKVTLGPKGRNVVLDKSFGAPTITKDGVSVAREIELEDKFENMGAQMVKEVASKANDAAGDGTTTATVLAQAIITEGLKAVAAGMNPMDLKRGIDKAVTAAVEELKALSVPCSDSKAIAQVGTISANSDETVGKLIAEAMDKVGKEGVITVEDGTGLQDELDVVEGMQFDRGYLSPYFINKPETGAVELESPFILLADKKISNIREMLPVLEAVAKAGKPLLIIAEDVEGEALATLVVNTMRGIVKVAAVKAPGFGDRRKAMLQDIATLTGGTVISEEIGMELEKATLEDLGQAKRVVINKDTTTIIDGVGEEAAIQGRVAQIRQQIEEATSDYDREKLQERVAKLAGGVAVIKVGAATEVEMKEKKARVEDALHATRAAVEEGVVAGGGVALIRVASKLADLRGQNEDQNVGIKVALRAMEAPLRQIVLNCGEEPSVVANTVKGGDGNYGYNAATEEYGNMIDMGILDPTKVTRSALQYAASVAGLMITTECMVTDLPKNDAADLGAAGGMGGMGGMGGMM
# TEST METHOD NOTES: GroEL/ES-mediated dRho refolding assay
# Assay type: biochemical
# CONDITIONS: log of IC50 (μM scale), with standard deviation
RECORDED METRIC: log(IC50) GroEL/ES-dRho Refolding

Below: 6 compounds and their reported log(IC50) GroEL/ES-dRho Refolding.
| COMPOUND | log(IC50) GroEL/ES-dRho Refolding |
| --- | --- |
| O=C(Nc1ccc(Sc2nc3ccccc3s2)c(Cl)c1)c1ccccc1O | 1.80 ± 0.27 |
| COc1c(Br)cccc1C(=O)Nc1cccc(Cl)c1 | >2 |
| O=C(Nc1cccc(Cl)c1)c1ccccc1O [Compound 12, N-(3-Chlorophenyl)-2-hydroxybenzamide] | >2 |
| COc1c(Br)cc(Br)cc1C(=O)Nc1cccc(Cl)c1 | >2 |
| CN[C@H](CC(C)C)C(=O)N[C@H]1C(=O)N[C@@H](CC(N)=O)C(=O)N[C@H]2C(=O)N[C@H]3C(=O)N[C@H](C(=O)N[C@H](C(=O)O)c4cc(O)cc(O)c4-c4cc3ccc4O)[C@H](O)c3ccc(c(Cl)c3)Oc3cc2cc(c3O[C@@H]2O[C@H](CO)[C@@H](O)[C@H](O)[C@H]2O[C@H]2C[C@](C)(N)[C@H](O)[C@H](C)O2)Oc2ccc(cc2Cl)[C@H]1O [Vancomycin, vancomycin, reference compound] | >2 |
| COc1ccc(Br)cc1C(=O)Nc1ccccc1 [Compound 43, 5-Bromo-2-methoxy-N-phenylbenzamide] | >2 |

In the following, a different compound is considered.
Name the recorded log(IC50) GroEL/ES-dRho Refolding of the compound listed here: O=C(Nc1ccc(Sc2nc3ccccc3s2)cc1)c1cc(Br)ccc1O
1.48 ± 0.11

Cited source for all entries: patent US20210395210A1
